Below: a set of entries, each annotated with reported EC50.
# Target Under Test: T1, CD47 on CCRF-CEM cells (human, UniProt Q08722 19-323)
# T1 construct: Target is CD47 carried by the CD47-positive cell line CCRF-CEM; also called Cluster of Differentiation 47; integrin-associated protein
# T1 sequence (Q08722 19-323): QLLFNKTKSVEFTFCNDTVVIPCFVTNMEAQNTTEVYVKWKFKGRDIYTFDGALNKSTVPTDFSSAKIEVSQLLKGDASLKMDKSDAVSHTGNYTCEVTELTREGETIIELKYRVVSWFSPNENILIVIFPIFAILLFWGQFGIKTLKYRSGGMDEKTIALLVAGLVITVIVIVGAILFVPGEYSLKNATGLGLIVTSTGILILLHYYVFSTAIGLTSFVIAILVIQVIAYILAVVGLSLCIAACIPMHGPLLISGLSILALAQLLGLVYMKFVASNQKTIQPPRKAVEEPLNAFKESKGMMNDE
# Assay Notes: flow cytometry on antibody-opsonized CCRF-CEM cells, anti-human Alexa 647 secondary, median fluorescence, sigmoidal fit
Lab book: enter the figure in µg/mL, no units written.

Example entries begin here.
Ab1119/Ab480 (LC Ab1119, HC Ab480) anti-CD47 antibody (antibody, V domains shown, Variant of AbParental) VH: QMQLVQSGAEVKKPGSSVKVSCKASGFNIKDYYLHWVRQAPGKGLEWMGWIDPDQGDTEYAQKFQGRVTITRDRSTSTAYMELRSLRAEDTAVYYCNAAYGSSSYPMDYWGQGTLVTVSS VL: NIQMTQSPSSLSASVGDRVTITCRASQDIHRYLSWFQQKPGKVPKHLIYRANRLVSGVPSRFSGSGSGTEFTLTISSLQPEDFATYYCLQYDEFPYTFGGGTKVEIK
0.012
Ab482/Ab387 (LC Ab482, HC Ab387) anti-CD47 antibody (antibody, V domains shown, Framework variant of AbParental) VH: QMQLVQSGAEVKKPGSSVKVSCKASGFNIKDYYLHWVRQAPGKGLEWMGWIDPDQGDTEYAQKFQGRVTITRDRSTSTAYMELRSLRSEDTAVYYCNAAYGSSSYPMDYWGQGTLVTVSS VL: NIQMTQSPSSMSASVGDRVTITCKASQDIHRYLSWFQQKPGKVPKHLIYRANRLVSGVPSRFSGSGSGTEFTLTISSLQPEDFATYYCLQYDEFPYTFGGGTKVEIK
0.014

Here is another binder to look at.
For the binder Ab1119/Ab170 (LC Ab1119, HC Ab170) anti-CD47 antibody (antibody, V domains shown, Variant of AbParental) VH: QMQLVQSGAEVKKPGSSVKVSCKASGFNIKDYYLHWVRQAPGKGLEWMGWIDPDQGDTEYAQKFQGRVTITRDRSTSTAYMELRSLRSEDTAVYYCNAAYGSSSYPMDYWGQGTTVTVSS VL: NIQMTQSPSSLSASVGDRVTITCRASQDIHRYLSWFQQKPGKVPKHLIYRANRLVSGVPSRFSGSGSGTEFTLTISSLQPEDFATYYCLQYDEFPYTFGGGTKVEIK , give its reported EC50. 0.015
